Target: Human recombinant PDE10A2 (Homo sapiens (Human))
Test: In vitro hPDE10a (human recombinant PDE10A2, scintillation proximity assay)
Settings: human recombinant PDE10A2, 60 nM cAMP, 60 min at room temperature; read-out: hPDE10a2 IC50
Counter-ions that a name gives are not always drawn.
I'd appreciate it if you marked entries Y when IC50 is lower than 7 nM and N when it is not.

1) c1ccc2nc(CCc3cn4c(-c5ccc(-c6nnn[nH]6)nc5)cnc(N5CCOCC5)c4n3)ccc2c1 ... Y
2) COc1cc(-c2ncc(-c3ccc(N4CCNCC4)nc3)n3cc(/C=C/c4ccc5ccccc5n4)nc23)ccn1 ... N
3) O=C1NS(=O)(=O)c2cc(-c3cnc(N4CCOCC4)c4nc(CCc5ccc6ccccc6n5)cn34)ccc21 [Cpd 54, trifluoroacetic acid salt] ... Y
4) O=c1[nH]ncn1-c1ccc(-c2cnc(N3CCOCC3)c3nc(/C=C/c4ccc5ccccc5n4)cn23)cc1 ... N
5) COCCOCCOc1ccc(-c2cnc(N3CCOCC3)c3nc(CCc4ccc5ccccc5n4)cn23)cc1 ... Y
6) c1ccc2nc(OCc3cn4c(-c5cnc(N6CCNCC6)nc5)cnc(N5CCOCC5)c4n3)ccc2c1 ... N

----------
Molecular target: Human recombinant PDE10A2 (Homo sapiens (Human))
Assay: In vitro hPDE10a (human recombinant PDE10A2, scintillation proximity assay)
Conditions: human recombinant PDE10A2, 60 nM cAMP, 60 min at room temperature; read-out: hPDE10a2 IC50
Where a name gives a salt, the structure may show the parent alone.
Just a reminder that ties go to class 0: only IC50 strictly below 40 nM counts as class 1.

1. O=C(Nc1ccc(-c2cnc(N3CCOCC3)c3nc(/C=C/c4ccc5ccccc5n4)cn23)cc1)N(CCO)CCO [Cpd 71] ... class 0
2. c1ccc2nc(OCc3cn4c(-c5ccc(-c6nnn[nH]6)cc5)cnc(N5CCOCC5)c4n3)ccc2c1 [Cpd 90] ... class 1
3. c1ccc2nc(CCc3cn4c(-c5ccc(-c6nnc[nH]6)nc5)cnc(N5CCOCC5)c4n3)ccc2c1 [Cpd 67] ... class 1
4. Cc1cc(S(=O)(=O)NC(C)C)ccc1-c1cnc(N2CCOCC2)c2nc(/C=C/c3ccc4ccccc4n3)cn12 [Cpd 49] ... class 0
5. O=C(O)CCNc1ccc(-c2cnc(N3CCOCC3)c3nc(/C=C/c4ccc5ccccc5n4)cn23)cc1 [Cpd 22, trifluoroacetic acid salt] ... class 1
6. O=C1CN(c2ncc(-c3ccc(N4CCNCC4)nc3)n3cc(COc4ccc5ccccc5n4)nc23)CCN1 [Cpd 115, trifluoroacetic acid salt] ... class 0
7. O=c1[nH]ncn1-c1ccc(-c2cnc(N3CCOCC3)c3nc(CCc4ccc5ccccc5n4)cn23)cc1 [Cpd 65] ... class 1

----------
Below is a list of entries, each paired with its recorded IC50 value.
Biological target: Human recombinant PDE10A2 (Homo sapiens (Human), UniProt Q9Y233)
Sequence (Q9Y233 267-1055): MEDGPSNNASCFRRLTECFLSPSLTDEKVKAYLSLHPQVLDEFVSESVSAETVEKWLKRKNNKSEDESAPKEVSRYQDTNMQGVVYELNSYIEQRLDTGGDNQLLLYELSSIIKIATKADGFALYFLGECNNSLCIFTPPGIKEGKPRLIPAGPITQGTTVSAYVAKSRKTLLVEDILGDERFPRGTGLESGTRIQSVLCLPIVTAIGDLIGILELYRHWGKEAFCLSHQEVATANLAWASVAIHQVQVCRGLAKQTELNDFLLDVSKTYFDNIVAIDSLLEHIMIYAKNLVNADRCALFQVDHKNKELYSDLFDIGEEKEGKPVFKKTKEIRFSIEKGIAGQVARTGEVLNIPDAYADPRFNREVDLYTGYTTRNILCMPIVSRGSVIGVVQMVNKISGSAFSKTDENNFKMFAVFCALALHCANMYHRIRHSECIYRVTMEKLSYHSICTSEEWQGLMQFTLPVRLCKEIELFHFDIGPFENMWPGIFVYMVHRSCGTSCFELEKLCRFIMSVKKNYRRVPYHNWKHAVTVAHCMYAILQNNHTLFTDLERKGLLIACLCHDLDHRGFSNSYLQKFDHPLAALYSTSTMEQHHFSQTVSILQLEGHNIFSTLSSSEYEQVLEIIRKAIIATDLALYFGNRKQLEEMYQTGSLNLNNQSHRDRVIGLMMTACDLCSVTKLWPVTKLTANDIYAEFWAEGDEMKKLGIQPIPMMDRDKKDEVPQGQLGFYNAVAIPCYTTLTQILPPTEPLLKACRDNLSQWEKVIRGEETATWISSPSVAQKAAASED
Test: In vitro hPDE10a (human recombinant PDE10A2, scintillation proximity assay)
Conditions: human recombinant PDE10A2, 60 nM cAMP, 60 min at room temperature; read-out: hPDE10a2 IC50
Counter-ions that a name gives are not always drawn.
READOUT: IC50 (µM)

1) c1ccc2nc(CCc3cn4c(-c5ccc(N6CCNCC6)nc5)cnc(N5CCOCC5)c4n3)ccc2c1 [Cpd 102, trifluoroacetic acid salt] ... 0.035
2) c1ccc2nc(OCc3cn4c(-c5ccc(Sc6nnc[nH]6)nc5)cnc(N5CCOCC5)c4n3)ccc2c1 ... 0.029
3) O=C1NC(=O)C(c2ccc(-c3cnc(N4CCOCC4)c4nc(/C=C/c5ccc6ccccc6n5)cn34)cc2)N1 (stereo not shown) [Cpd 57, 2,2,2-trifluoroacetate] ... 0.046
4) CN1C(=O)Nc2ccc(-c3cnc(N4CCOCC4)c4nc(/C=C/c5ccc6ccccc6n5)cn34)cc2S1(=O)=O ... 0.018
5) O=C(O)c1cncc(-c2cnc(N3CCOCC3)c3nc(/C=C/c4ccc5ccccc5n4)cn23)c1 ... 0.002
6) C(=C\c1ncccn1)/c1cn2c(-c3ccc(N4CCNCC4)nc3)cnc(N3CCOCC3)c2n1 ... 0.676
7) CS(=O)(=O)NC(=O)Nc1ccc(-c2cnc(N3CCOCC3)c3nc(CCc4ccc5ccccc5n4)cn23)cc1 ... 0.01
